Assay: blockers of Ca2+-induced mitochondrial swelling – biochemical, isolated mouse mitochondria, absorbance, primary screen (AID 602449);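 further: 0% = DMSO wells given calcium and 100% = 1 mM EGTA wells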
Conditions: 30 min, at 10 µM, active compounds read high
The whole screen tested about 360,000 compounds, of which about 5,000 (1.4%) were called active. Only a selection was taken, and actives are over-represented in it overall.
metric_name: inhibition (%)
# unit: % | format: bare number

Short answer for COCCNC(=S)N1CCC(NC(=O)C23CC4CC(CC(C4)C2)C3)CC1 : inhibition was -2.3

Short answer for Fc1ccccc1CNC(=S)Nc1ccc(Cl)cc1 : inhibition was 102

Short answer for COc1cccc(C(=O)Nc2nnc(S(=O)(=O)N3CCOCC3)s2)c1 : inhibition was -1

Short answer for CCOc1ccc(NC(=O)CN(C)C(=O)CSc2ccccc2)cc1OCC : inhibition was 1

Short answer for Cc1ccc2cc(CN(c3ccc(C)c(C)c3)S(C)(=O)=O)c(=O)[nH]c2c1 : inhibition was -0.6

Short answer for COc1ccc(C)cc1NC(=S)Nc1ccccc1SC : inhibition was 0.6

Short answer for O=C(CSc1nc(-c2ccccc2)cs1)Nc1cccc([N+](=O)[O-])c1 : inhibition was 93

Short answer for O=C(CN(C(=O)CCC(=O)Nc1nccs1)c1ccc(F)cc1)NCc1ccc2c(c1)OCO2 : inhibition was -0.8

Short answer for O=C(CCn1nnc2ccccc2c1=O)N[C@@H](Cc1c[nH]c2ccccc12)C(=O)O : inhibition was 1.4

Short answer for CCCNC(=O)CN(Cc1ccccc1F)S(=O)(=O)c1ccc(C)cc1 : inhibition was 1.8

Short answer for Cc1cccc(NC(=S)N2CCC(c3nc4ccccc4s3)CC2)c1 : inhibition was 3

Short answer for CCc1cccc(NC(=O)COC(=O)c2cc(=O)c3ccccc3o2)c1 : inhibition was 0.9

Short answer for COc1cc(OC)cc(-c2c(-c3cccs3)c3cc(-c4ccc(OC)nc4)ccc3n2C)c1 : inhibition was -0.4

Short answer for CCOC(=O)C1CCN(C(=O)Cc2c(C(=O)O)[nH]c3ccccc23)CC1 : inhibition was 0.3

* * *

Assay: blockers of Ca2+-induced mitochondrial swelling – biochemical, isolated mouse mitochondria, absorbance, primary screen (AID 602449);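 further: 0% = DMSO wells given calcium and 100% = 1 mM EGTA wells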
Details: 30 min, at 10 µM
In all, about 360,000 compounds went through this assay and about 5,000 (1.4%) were called active.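 Rule for the calls: active = inhibition of 50% or more, scaled per plate between neutral and stimulator controls; inactive = the rest.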 This is one part of a sample in which actives are shown more often than they occur.
One label from this list, please: Y for active, N for inactive

Q: Status in this test for Cc1csc(NC(=S)Nc2cccc(Cl)c2)n1 ?
Ans: Y

Q: Status in this test for CCCCc1nc(NCCN)c(C#N)c2c1CSC(C)(C)C2 ?
Ans: Y

Q: Status in this test for CCCCc1nc(NCc2ccccc2)c(C#N)c2c1CCCC2 ?
Ans: N

Q: Status in this test for CCOC(=O)c1c(NC(=O)COC(=O)c2ccc(S(=O)(=O)C(F)F)cc2)sc(C(=O)N(C)C)c1C ?
Ans: N

Q: Status in this test for CCOc1ccc(S(=O)(=O)NCCCn2ccnc2)cc1NC(C)=O ?
Ans: N

Q: Status in this test for Cc1nc2c(-c3ccccc3)c(C)[nH]n2c(=O)c1Cl ?
Ans: N

* * *

Assay: blockers of Ca2+-induced mitochondrial swelling – biochemical, isolated mouse mitochondria, absorbance, primary screen (AID 602449);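 further: 0% = DMSO wells given calcium and 100% = 1 mM EGTA wells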
Conditions: 30 min, at 10 µM
Screen size: about 360,000 compounds; about 5,000 (1.4%) were called active.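 Rule for the calls: active = inhibition of 50% or more, scaled per plate between neutral and stimulator controls; inactive = the rest.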 The list comes from a sample in which actives are over-represented; it also holds close analogues and randomly drawn compounds.
One label from this list, please: active, inactive

Q: Status in this test for CCOC(=O)c1c(NC(=O)CSc2cn(CC)c3ccccc23)sc2c1CCC2 ?
Ans: active

Q: Status in this test for COC(=O)c1ccc(CNC(=O)C2CCC(=O)N(Cc3cccc(F)c3)C2)cc1 (configuration not stated) ?
Ans: inactive

Q: Status in this test for CN(CC(=O)Nc1cccc(F)c1)C(=O)C1=COCCO1 ?
Ans: inactive

Q: Status in this test for CCOC(=O)c1c(NC(=O)C(C)Sc2c[nH]c3ccccc23)sc2c1CCC2 (configuration not stated) ?
Ans: inactive

Q: Status in this test for CCOC(=O)c1c(NC(=O)Cn2nc(C(F)(F)F)cc2C)sc2c1CCC2 ?
Ans: inactive

Q: Status in this test for NC(N)=N/N=C/c1ccc(Cl)c([N+](=O)[O-])c1 ?
Ans: active

Q: Status in this test for Cc1cc([N+](=O)[O-])c(NC2CCCCC2)c([N+](=O)[O-])c1 ?
Ans: inactive

* * *

Assay: blockers of Ca2+-induced mitochondrial swelling – biochemical, isolated mouse mitochondria, absorbance, primary screen (AID 602449);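 further: 0% = DMSO wells given calcium and 100% = 1 mM EGTA wells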
Conditions: 30 min, at 10 µM, active compounds read high
The whole screen tested about 360,000 compounds, of which about 5,000 (1.4%) were called active. The list comes from a sample in which actives are over-represented; it also holds close analogues and randomly drawn compounds.
metric_name: inhibition (%)
# unit: % | format: bare number

Short answer for COc1ccc(S(=O)(=O)N2CCCCC2)cc1C(=O)NC1CCS(=O)(=O)C1 (configuration not stated) : inhibition was 0.2

Short answer for COc1ccc(S(=O)(=O)N[C@@H]2C=C[C@@H](CC(=O)N3CCc4ccccc4C3)O[C@@H]2CO)cc1 : inhibition was 0.4

Short answer for COc1ccc(Br)cc1C(=O)Nc1cccc(C)c1C : inhibition was -1.2

Short answer for Cc1noc(C)c1COC(=O)c1cc2ccccc2cc1O : inhibition was 1

Short answer for CC(C)S(=O)(=O)c1csc(NC(=O)Nc2ccc(Cl)cc2)c1Cl : inhibition was 88.8

Short answer for Cc1onc(-c2ccccc2)c1C(=O)NNC(=S)NC(=O)c1ccc(F)cc1 : inhibition was 90.1

Short answer for CCOC(=O)N1CCC(Nc2c(NCCCN3CCN(c4ccc(OC)cc4)CC3)c(=O)c2=O)CC1 : inhibition was 2.4

Short answer for CC(CNc1ccc([N+](=O)[O-])cc1)NC(=O)c1ccccc1Br (configuration not stated) : inhibition was 0

Short answer for Cc1cccc(NS(=O)(=O)c2ccc([N+](=O)[O-])cc2)n1 : inhibition was 0.2

Short answer for Cc1nc2c(OCc3ccc(Cl)cc3Cl)cccn2c1N(C)CC1CC1 : inhibition was 82.3

Short answer for O=C(NNS(=O)(=O)c1ccc(F)cc1)c1ccc([N+](=O)[O-])cc1Cl : inhibition was -0.9

Short answer for O=C(NC1(C(F)(F)F)NC(=O)N(Cc2cccnc2)C1=O)c1ccccc1Cl (configuration not stated) : inhibition was 1

Short answer for CCc1nc2c(OCc3ccc(Cl)cc3Cl)cccn2c1N(C)C(=O)C(C)C : inhibition was -3.5

Short answer for CC(=O)N1CCC(N(C(=O)Nc2ccc(Cl)cc2)C(C)C)CC1 : inhibition was 2.8

Short answer for O=C(CSc1nc(C2CC2)nc2ccccc12)Nc1cccc(O)c1 : inhibition was -0.4

Short answer for COc1ccccc1C(=O)NC(=S)Nc1ccccc1N1CCCCC1 : inhibition was 1.3

Short answer for CCc1c(C)sc(NC(=O)c2cccs2)c1C(N)=O : inhibition was -0.6

Short answer for COc1ccc(OCC(O)CNC(=O)Nc2ccc(Cl)cc2)cc1 (configuration not stated) : inhibition was 6.8

Short answer for O=C1CCN(Cc2ccc([N+](=O)[O-])cc2)CCN1[C@H](CO)Cc1ccccc1 : inhibition was -0.2

Short answer for N#C/C(=C(/O)Cc1cccc2ccccc12)c1nc2ccccc2s1 : inhibition was 95.9

Short answer for Cc1[nH]c2ccccc2c1-c1ccc(Cl)nn1 : inhibition was -1

Short answer for Cc1nc2c(OCC(=O)C(C)(C)C)cccn2c1N(C)Cc1cccs1 : inhibition was 2.6

Short answer for Cc1nc2c(OCc3ccc(Cl)cc3)cccn2c1N(C)Cc1cccs1 : inhibition was 79.6

Short answer for CN(C)C(=O)N=NC(=O)N(C)C : inhibition was 4.3

Short answer for O=C(NNC(=O)c1cccc(S(=O)(=O)Nc2ccc(Cl)cc2)c1)c1ccc(=O)[nH]c1 : inhibition was -1.3

Short answer for Cc1ccc(C(CNC(=O)Nc2ccccc2)N2CCN(C)CC2)cc1 (configuration not stated) : inhibition was 2

Short answer for CC(C)c1nc2oc3c(N4CCN(C)CC4)ncnc3c2c2c1CCC2 : inhibition was -0.5

* * *

Assay: blockers of Ca2+-induced mitochondrial swelling – biochemical, isolated mouse mitochondria, absorbance, primary screen (AID 602449);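 further: 0% = DMSO wells given calcium and 100% = 1 mM EGTA wells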
Details: 30 min, at 10 µM, active compounds read high
About 5,000 (1.4%) of roughly 360,000 compounds were called active. The entries come from a sample that favours actives as a whole.
Hi there, I'd appreciate the recorded inhibition for every entry that follows.
# unit: % | format: bare number

Short answer for C[C@H]1CN([C@@H](C)CO)C(=O)CCCn2cc(nn2)CO[C@@H]1CN(C)S(=O)(=O)c1ccccc1C#N : inhibition was -0.4

Short answer for O=C(c1ccc(F)cc1)c1c[nH]c(C(=O)NCc2cccnc2)c1 : inhibition was 0.8

Short answer for CCCN(CCC)c1c([N+](=O)[O-])c(=O)oc2ccccc12 : inhibition was -6.7

* * *

Assay: blockers of Ca2+-induced mitochondrial swelling – biochemical, isolated mouse mitochondria, absorbance, primary screen (AID 602449);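 further: 0% = DMSO wells given calcium and 100% = 1 mM EGTA wells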
Details: 30 min, at 10 µM, active compounds read high
The campaign covered roughly 360,000 compounds. About 5,000 (1.4%) were called active. The list comes from a sample in which actives are over-represented; it also holds close analogues and randomly drawn compounds.
Hi there, I'd appreciate the recorded inhibition for every entry that follows.
# unit: % | format: bare number

Short answer for Cc1nc(CNS(=O)(=O)c2ccc(Oc3ccccc3)cc2)cs1 : inhibition was 88.7

Short answer for COC(=O)C1(C)NC(c2ccccc2OC)C2C(=O)N(c3ccccc3)C(=O)C21 (centres undefined) : inhibition was 1.1

Short answer for Cc1nc(CNS(=O)(=O)c2cc([N+](=O)[O-])ccc2C)cs1 : inhibition was 0.4

Short answer for O=C(C1CCC1)N1CCc2cc(S(=O)(=O)NCc3cccnc3)ccc21 : inhibition was -1.1
